// values below are reported activation
- Assay info: HIF pathway transcriptional activators, primary screen, cell-based, U2OS HRE-luciferase, luminescence (AID 1910)
- Condition parameters: U2OS HRE-luciferase reporter, hits give high values, screened at 7.5 µM (by protocol), normalized: DMSO 0%, desferrioxamine 100%
About 950 (0.32%) of roughly 300,000 compounds were called active. Shown is part of a subset that was picked to be rich in actives.
State just the number; it will be interpreted in %.

>  <Compound>
O=C(N/N=C/c1ccccc1O)C1CCCC1

>  <Unit tag>
%

>  <activation>
0.236

$$$$
>  <Compound>
O=C(N/N=C/c1ccccc1O)/C(=C/c1ccccc1)CCO

>  <Unit tag>
%

>  <activation>
31.1

$$$$
>  <Compound>
Cc1onc(-c2ccccc2Cl)c1C(=O)OCc1nnc(-c2ccccc2)o1

>  <Unit tag>
%

>  <activation>
0.814

$$$$
>  <Compound>
Cc1cccc(N=C2SC(C)CN2C(=O)CN2C(=O)NC3(CCCC3)C2=O)c1 (stereo not drawn)

>  <Unit tag>
%

>  <activation>
0.348

$$$$
>  <Compound>
Cc1nc2ccccc2nc1N/N=C/c1ccc(O)cc1O

>  <Unit tag>
%

>  <activation>
15.9

$$$$

Req: Consider the compound shown here: COc1ccc(S(=O)(=O)N2CCOC2CNC(=O)C(=O)NCc2ccncc2)cc1OC (stereo not drawn) What is its recorded activation?
Resp: 0.131

Req: Quick one: activation of `Cc1nc(-c2ccc(F)cc2)c(CC(=O)Nc2cc(S(=O)(=O)N3CCCCC3)ccc2C)s1` ?
Resp: -0.206

Req: GET /values?readout=activation&item= `COc1ccc(-n2c(C)csc2=S)cc1`
Resp: 14.5

Req: Param item = CC1CN/C(=C\C(=O)c2ccc(Br)cc2)C(=O)N1 (stereo not drawn) ; retrieve measured activation.
Resp: 71.1

Req: May I ask what activation has been recorded for `COc1cc(CNC2CCCC2)c(Br)cc1OCc1ccccc1` ?
Resp: -0.706

Req: Requested field: activation. Item: CC(C)C(O)C1CCN(Cc2nc(Cc3ccccc3Cl)no2)CC1 (stereo not drawn)
Resp: 0.0858

Req: Which activation reading was recorded for the compound CN1CCCC(OC(=O)COc2ccc(Br)cc2)C1 (stereo not drawn) ?
Resp: -0.189

Req: Recorded activation of `O=C(N[C@@H](Cc1ccccc1)C(=O)OCc1ccccc1)c1nc[nH]c1C(=O)NC1CCNCC1` , please.
Resp: 1.06

Req: Any idea what its activation is? The compound is `COc1cc2c(cc1OC)/C(=C/C(=O)c1ccc(NC(C)=O)cc1)NCC2`
Resp: -0.377

Req: Report activation for `Cc1cc(C)c(C)c(S(=O)(=O)Nc2cccnc2)c1C` please.
Resp: -0.0811

Req: Field request: activation | item: `C1CC1Cc1noc(CN2CCN(CC3CC3)CC2)n1`
Resp: 75.3

Req: Data request, read-out activation, for `CC(=O)N1CCc2c(sc(NC(=O)CCS(=O)(=O)c3ccc(C)cc3)c2C(N)=O)C1`
Resp: -0.0953

Req: Suppose we examine the compound `COCCNC(=S)N(CCc1c(C)[nH]c2ccc(C)cc12)Cc1cccnc1` ; what activation value has been reported?
Resp: 0.573

// provenance: PubChem BioAssay AID1910
